Molecular target: T1, recombinant soluble human TREM2 protein (human TREM2 ECD-FlagHis) (human, UniProt Q9NZC2 19-174)
T1 sequence: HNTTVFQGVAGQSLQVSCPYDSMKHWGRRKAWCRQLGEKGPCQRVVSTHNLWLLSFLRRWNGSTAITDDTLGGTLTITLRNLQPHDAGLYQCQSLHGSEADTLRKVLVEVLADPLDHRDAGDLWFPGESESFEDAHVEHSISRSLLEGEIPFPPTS
Experiment: Octet BLI binning; competitor: load Ab 26C10
Provide the recorded sandwich binding signal for the entries that follow.

# lookup: sandwich binding signal of 32E3 (antibody, human IgG2, V domains shown, human IgG2 from hybridoma) VH: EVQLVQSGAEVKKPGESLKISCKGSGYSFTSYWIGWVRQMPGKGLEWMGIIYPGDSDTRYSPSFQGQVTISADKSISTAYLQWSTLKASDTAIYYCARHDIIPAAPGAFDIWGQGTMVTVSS VL: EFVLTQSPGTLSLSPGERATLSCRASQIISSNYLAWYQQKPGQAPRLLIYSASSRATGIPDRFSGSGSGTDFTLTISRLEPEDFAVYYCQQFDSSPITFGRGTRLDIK
0.141

sandwich binding signal for 24F4 (antibody, human IgG2, V domains shown, human IgG2 from hybridoma) VH: EVQLVQSGAEVKKPGESLKISCKGSGYTFTSYWIGWVRQMPGKGLEWMGIIYPGDSDTRYSPSFQGQVTISVDKSSSTAYLQWSSLKASDTAIYYCTRQAIAVTGLGGFDPWGQGTLVTVSS VL: EIVLTQSPGTLSLSPGERATLSCRASQSVSSSYLAWYQQKPGQAPRLLIYGASSRATGIPDRFSGSGSGTDFTLTISRLEPEDFALYYCQQYDTSPFTFGPGTKVDIK ?
0.346

Using the record for 16B8 (antibody, human IgG4, V domains shown, human IgG4 (G4) from hybridoma) VH: QVQLVQSGAEVKKPGASVKVSCKASGYTFTNYGISWVRQAPGQGLEWMGWISAYNGNTNYAQKLQGRVTMTTDTSTSTVYMELRSLRSDDTAVYYCARRGYSYGSFDYWGQGTLVTVSS VL: DIQMTQSPSSVSASVGDRVTVTCRASQDINSWLAWYQQKPGKAPKLLIYAASSLQTGVPSRFSGSGSGTDFTLTISSLQPEDFATYSCQQSNSFPITFGQGTRLEIK , report its sandwich binding signal.
0.006
